Biological target: anti-CC49 variable region antibodies in the serum of patient two
Assay: HPLC, 125I-HuCC49 + serum + 5 Tg competitor; fewer complexes = competitor bound

| binder | percent of complexes [%] |
| --- | --- |
| HuCC49 CDR variant H-2 (antibody, V domains shown) VH: QVQLVQSGAEVVKPGASVKISCKASGYTFTDHAIHWVKQNPGQRLEWIGWINAGNGNTKYSQKFQGKATLTADTSASTAYVELSSLRSEDTAVYFCTRSLNMAYWGQGTLVTVSS VL: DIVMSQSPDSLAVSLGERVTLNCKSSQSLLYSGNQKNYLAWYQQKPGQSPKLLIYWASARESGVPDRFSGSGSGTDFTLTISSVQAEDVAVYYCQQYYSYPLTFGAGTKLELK | 24.7 |
| HuCC49 CDR variant L-2 (antibody, V domains shown) VH: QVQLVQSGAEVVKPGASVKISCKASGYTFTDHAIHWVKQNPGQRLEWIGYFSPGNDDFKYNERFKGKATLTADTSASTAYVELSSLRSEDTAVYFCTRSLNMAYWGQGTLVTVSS VL: DIVMSQSPDSLAVSLGERVTLNCKSSQSLLYSGNQKNYLAWYQQKPGQSPKLLIYWASTRESGVPDRFSGSGSGTDFTLTISSVQAEDVAVYYCQQYYSYPLTFGAGTKLELK | 4.4 |

Value source: patent US20080050810A1
